SYSTEM_TESTED: Cyclic GMP-AMP synthase (Mus musculus, UniProt Q8C6L5)
Sequence (Q8C6L5 whole entry): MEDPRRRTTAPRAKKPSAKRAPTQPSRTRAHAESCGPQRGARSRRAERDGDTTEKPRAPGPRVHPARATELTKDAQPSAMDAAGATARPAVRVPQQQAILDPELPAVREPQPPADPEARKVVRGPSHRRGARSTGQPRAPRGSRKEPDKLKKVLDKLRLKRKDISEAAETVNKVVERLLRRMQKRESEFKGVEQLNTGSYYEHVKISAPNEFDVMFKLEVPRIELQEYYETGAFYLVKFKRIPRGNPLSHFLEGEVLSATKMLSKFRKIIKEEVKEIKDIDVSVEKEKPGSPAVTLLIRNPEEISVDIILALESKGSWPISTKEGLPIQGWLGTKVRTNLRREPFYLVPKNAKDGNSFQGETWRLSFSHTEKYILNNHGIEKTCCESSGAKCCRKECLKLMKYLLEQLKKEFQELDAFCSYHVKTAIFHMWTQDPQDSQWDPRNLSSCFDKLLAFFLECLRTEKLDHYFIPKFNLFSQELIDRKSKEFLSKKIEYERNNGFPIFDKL
MEASUREMENT_TYPE: IC50 (nM)
Write the number in nM without appending the unit.

Tell me its IC50 on Cyclic GMP-AMP synthase (Mus musculus, UniProt Q8C6L5): CCn1nc(C)cc1C(=O)Nc1nc2cc(C(N)=O)cc(OC)c2n1C/C=C/Cn1c(NC(=O)c2cc(C)nn2CC)nc2cc(C(N)=O)cc(OCCCN3CCOCC3)c21
270
